# C/L drug DMPG Lip. annotations
test: HPLC assay of lactone ring hydrolysis, free in PBS or associated with liposomes or micelles; type: physicochemical; details: DMPG liposomes, pH 7.4, 37° C.

molecule	C/L drug DMPG Lip.
CCC1(O)C(=O)OCc2c1cc1n(c2=O)Cc2cc3c(N)cccc3nc2-1 (centres unmarked) [9-aminocamptothecin]	0.15
CC[C@@]1(O)C(=O)OCc2c1cc1n(c2=O)Cc2cc3c(CN(C)C)c(O)ccc3nc2-1 [topotecan]	0.42

###

experiment: Steady-state fluorescence anisotropy in solvents and liposomes; type: physicochemical; conditions: octanol, 1 μM drug, 37° C.
Where a name gives a salt, the structure may show the parent alone.
reportedMetric: steady-state anisotropy (a), octanol

compound	result
CC[C@@]1(O)C(=O)OCc2c1cc1n(c2=O)Cc2cc3c(CN(C)C)c(O)ccc3nc2-1 [topotecan]	0.071
CCC1(O)C(=O)OCc2c1cc1n(c2=O)Cc2cc3cc4c(cc3nc2-1)OCO4 (stereo not drawn) [10,11-methylenedioxycamptothecin]	0.089
CCC1(O)C(=O)OCc2c1cc1n(c2=O)Cc2cc3cc(O)ccc3nc2-1 (stereo not drawn) [10-hydroxycamptothecin]	0.127
CC[C@@]1(O)C(=O)OCc2c1cc1n(c2=O)Cc2cc3ccccc3nc2-1 [camptothecin]	0.051
CCC(O)(C(=O)O)c1cc2n(c(=O)c1CO)Cc1cc3ccccc3nc1-2 (stereo not drawn) [camptothecin carboxylate, camptothecin carboxylate sodium salt]	0.073
CCC1(O)C(=O)OCc2c1cc1n(c2=O)Cc2cc3c(Cl)c4c(cc3nc2-1)OCO4 (stereo not drawn)	0.098

###

test: Steady-state fluorescence anisotropy in solvents and liposomes; format: physicochemical; details: DMPG liposomes, 37° C.
# steady-state anisotropy (a), DMPG annotations
reportedMetric: steady-state anisotropy (a), DMPG

molecule	reportedMetric	result
CCC1(O)C(=O)OCc2c1cc1n(c2=O)Cc2cc3cc(O)ccc3nc2-1 (centres unmarked) [10-hydroxycamptothecin]	steady-state anisotropy (a), DMPG	0.201
CCC1(O)C(=O)OCc2c1cc1n(c2=O)Cc2cc3cc4c(cc3nc2-1)OCO4 (centres unmarked)	steady-state anisotropy (a), DMPG	0.206
CC[C@@]1(O)C(=O)OCc2c1cc1n(c2=O)Cc2cc3ccccc3nc2-1	steady-state anisotropy (a), DMPG	0.122
CCC1(O)C(=O)OCc2c1cc1n(c2=O)Cc2cc3c(Cl)c4c(cc3nc2-1)OCO4 (centres unmarked)	steady-state anisotropy (a), DMPG	0.207
CC[C@@]1(O)C(=O)OCc2c1cc1n(c2=O)Cc2cc3c(CN(C)C)c(O)ccc3nc2-1	steady-state anisotropy (a), DMPG	0.170

###

test: Overall association constant by fluorescence anisotropy titration, DMPC liposomes; assay type: physicochemical; details: DMPC (electroneutral, fluid phase), PBS, 37° C.
Structures can show the parent of a compound that is named as a salt.

compound	overall association constant K, DMPC, M⁻¹
CC[C@@]1(O)C(=O)OCc2c1cc1n(c2=O)Cc2cc3c(CN(C)C)c(O)ccc3nc2-1	10
CCC1(O)C(=O)OCc2c1cc1n(c2=O)Cc2cc3cc(O)ccc3nc2-1 (stereo not shown) [10-hydroxycamptothecin]	75
CCC(O)(C(=O)O)c1cc2n(c(=O)c1CO)Cc1cc3ccccc3nc1-2 (stereo not shown) [camptothecin carboxylate, camptothecin carboxylate sodium salt]	40
CCC1(O)C(=O)OCc2c1cc1n(c2=O)Cc2cc3c(Cl)c4c(cc3nc2-1)OCO4 (stereo not shown)	400

###

test: Fluorescence excitation and emission spectra of camptothecin drugs free in solution and bound to liposomes; format: physicochemical; conditions: DMPC liposomes 0.29 M, pH 7.4, 37° C.
Counter-ions that a name gives are not always drawn.
# λMAX emission, DMPC annotations
reportedMetric: λMAX emission, DMPC (nm)

compound	reportedMetric	unitOfMeasure	result
CCC1(O)C(=O)OCc2c1cc1n(c2=O)Cc2cc3c(N)cccc3nc2-1 (stereo not drawn)	λMAX emission, DMPC	nm	442
CC[C@@]1(O)C(=O)OCc2c1cc1n(c2=O)Cc2cc3ccccc3nc2-1	λMAX emission, DMPC	nm	433
CCC1(O)C(=O)OCc2c1cc1n(c2=O)Cc2cc3cc4c(cc3nc2-1)OCO4 (stereo not drawn)	λMAX emission, DMPC	nm	408
CCC(O)(C(=O)O)c1cc2n(c(=O)c1CO)Cc1cc3ccccc3nc1-2 (stereo not drawn) [camptothecin carboxylate, camptothecin carboxylate sodium salt]	λMAX emission, DMPC	nm	437
CCC1(O)C(=O)OCc2c1cc1n(c2=O)Cc2cc3cc(O)ccc3nc2-1 (stereo not drawn) [10-hydroxycamptothecin]	λMAX emission, DMPC	nm	558
CC[C@@]1(O)C(=O)OCc2c1cc1n(c2=O)Cc2cc3c(CN(C)C)c(O)ccc3nc2-1	λMAX emission, DMPC	nm	538

###

# steady-state anisotropy (a), glycerol annotations
experiment: Steady-state fluorescence anisotropy in solvents and liposomes; assay type: physicochemical; conditions: glycerol, 1 μM drug, 37° C.
Counter-ions that a name gives are not always drawn.
reportedMetric: steady-state anisotropy (a), glycerol

compound	result
CCC1(O)C(=O)OCc2c1cc1n(c2=O)Cc2cc3c(Cl)c4c(cc3nc2-1)OCO4 (stereo not drawn)	0.363
CCC1(O)C(=O)OCc2c1cc1n(c2=O)Cc2cc3cc(O)ccc3nc2-1 (stereo not drawn) [10-hydroxycamptothecin]	0.331
CC[C@@]1(O)C(=O)OCc2c1cc1n(c2=O)Cc2cc3c(CN(C)C)c(O)ccc3nc2-1	0.320
CCC(O)(C(=O)O)c1cc2n(c(=O)c1CO)Cc1cc3ccccc3nc1-2 (stereo not drawn) [camptothecin carboxylate, camptothecin carboxylate sodium salt]	0.327
CC[C@@]1(O)C(=O)OCc2c1cc1n(c2=O)Cc2cc3ccccc3nc2-1	0.334
CCC1(O)C(=O)OCc2c1cc1n(c2=O)Cc2cc3cc4c(cc3nc2-1)OCO4 (stereo not drawn)	0.357

###

test: HPLC assay of lactone ring hydrolysis, free in PBS or associated with liposomes or micelles; type: physicochemical; details: final equilibrium, free in PBS, pH 7.4, 37° C.
# carboxylate/lactone ratio (C/L) free drug annotations
reportedMetric: carboxylate/lactone ratio (C/L) free drug

molecule	result
CC[C@@]1(O)C(=O)OCc2c1cc1n(c2=O)Cc2cc3c(CN(C)C)c(O)ccc3nc2-1 [topotecan]	7.5
CCC1(O)C(=O)OCc2c1cc1n(c2=O)Cc2cc3c(Cl)c4c(cc3nc2-1)OCO4 (stereo not shown)	6.4
CC[C@@]1(O)C(=O)OCc2c1cc1n(c2=O)Cc2cc3ccccc3nc2-1 [camptothecin]	6.8
CCC1(O)C(=O)OCc2c1cc1n(c2=O)Cc2cc3c([N+](=O)[O-])cccc3nc2-1 (stereo not shown) [9-nitrocamptothecin]	7.5

###

# λMAX emission, PBS annotations
test: Fluorescence excitation and emission spectra of camptothecin drugs free in solution and bound to liposomes; type: physicochemical; details: free in PBS, pH 7.4, 37° C.
Where a name gives a salt, the structure may show the parent alone.
reportedMetric: λMAX emission, PBS (nm)

compound	reportedMetric	unitOfMeasure	result
CCC(O)(C(=O)O)c1cc2n(c(=O)c1CO)Cc1cc3ccccc3nc1-2 (stereo not shown) [camptothecin carboxylate, camptothecin carboxylate sodium salt]	λMAX emission, PBS	nm	443
CCC1(O)C(=O)OCc2c1cc1n(c2=O)Cc2cc3c(N)cccc3nc2-1 (stereo not shown)	λMAX emission, PBS	nm	439
CCC1(O)C(=O)OCc2c1cc1n(c2=O)Cc2cc3cc4c(cc3nc2-1)OCO4 (stereo not shown)	λMAX emission, PBS	nm	410
CCC1(O)C(=O)OCc2c1cc1n(c2=O)Cc2cc3cc(O)ccc3nc2-1 (stereo not shown) [10-hydroxycamptothecin]	λMAX emission, PBS	nm	561

###

test: Fluorescence excitation and emission spectra of camptothecin drugs free in solution and bound to liposomes; format: physicochemical; conditions: free in PBS, pH 7.4, 37° C.
# λMAX emission, PBS annotations

compound	λMAX emission, PBS / nm
CCC1(O)C(=O)OCc2c1cc1n(c2=O)Cc2cc3c(Cl)c4c(cc3nc2-1)OCO4 (centres unmarked)	410
CC[C@@]1(O)C(=O)OCc2c1cc1n(c2=O)Cc2cc3ccccc3nc2-1	438
CCC1(O)C(=O)OCc2c1cc1n(c2=O)Cc2cc3c(N)c4c(cc3nc2-1)OCO4 (centres unmarked)	550
CCC1(O)C(=O)OCc2c1cc1n(c2=O)Cc2cc3c([N+](=O)[O-])cccc3nc2-1 (centres unmarked)	456
CC[C@@]1(O)C(=O)OCc2c1cc1n(c2=O)Cc2cc3c(CN(C)C)c(O)ccc3nc2-1	537

###

assay: Fluorescence excitation and emission spectra of camptothecin drugs free in solution and bound to liposomes; type: physicochemical; settings: in PBS, pH 7.4, at excitation and emission λMAX
Structures can show the parent of a compound that is named as a salt.
# Relative Fluorescence annotations
reportedMetric: Relative Fluorescence

compound	result
CCC1(O)C(=O)OCc2c1cc1n(c2=O)Cc2cc3c(N)c4c(cc3nc2-1)OCO4 (stereo not drawn)	0.001
CCC1(O)C(=O)OCc2c1cc1n(c2=O)Cc2cc3c(N)cccc3nc2-1 (stereo not drawn)	0.001
CCC1(O)C(=O)OCc2c1cc1n(c2=O)Cc2cc3cc4c(cc3nc2-1)OCO4 (stereo not drawn)	1
CCC(O)(C(=O)O)c1cc2n(c(=O)c1CO)Cc1cc3ccccc3nc1-2 (stereo not drawn) [camptothecin carboxylate, camptothecin carboxylate sodium salt]	1
CCC1(O)C(=O)OCc2c1cc1n(c2=O)Cc2cc3c(Cl)c4c(cc3nc2-1)OCO4 (stereo not drawn)	1
CC[C@@]1(O)C(=O)OCc2c1cc1n(c2=O)Cc2cc3c(CN(C)C)c(O)ccc3nc2-1	1
CCC1(O)C(=O)OCc2c1cc1n(c2=O)Cc2cc3cc(O)ccc3nc2-1 (stereo not drawn) [10-hydroxycamptothecin]	0.5
CCC1(O)C(=O)OCc2c1cc1n(c2=O)Cc2cc3c([N+](=O)[O-])cccc3nc2-1 (stereo not drawn)	0.001
CC[C@@]1(O)C(=O)OCc2c1cc1n(c2=O)Cc2cc3ccccc3nc2-1	1
